Where a SMILES comes first, the peptide text is derived from it.
Reported values: log10 of Ki for Kappa-type opioid receptor (Homo sapiens, UniProt P41145), one per item.
Note: values are log10 of Ki expressed in nM.

# annotated cases, reported log10 of Ki shown
Compound	log10 of Ki
N=C(N)NCCC[C@@H](NC(=O)[C@@H](CCCNC(=N)N)NC(=O)[C@@H]1CCCN1C(=O)c1ccc2ccccc2c1)C(=O)N[C@@H](CCC(N)=O)C(=O)N[C@@H](CC1CCCCC1)C(=O)N[C@H]1CSSC[C@@H](C(=O)O)NC1=O	2.36
CC[C@H](C)[C@H](NC(=O)[C@H](CCC(N)=O)NC(=O)[C@H](CCCNC(=N)N)NC(=O)[C@H](C)NC(=O)[C@@H]1CSSC[C@H](NC(=O)[C@@H](N)CC(N)=O)C(=O)N1)C(=O)N[C@H]1CSSC[C@@H](C(N)=O)NC1=O (HELM PEPTIDE1{N.C.C.A.R.Q.I.C.C.[am]}$PEPTIDE1,PEPTIDE1,2:R3-3:R3|PEPTIDE1,PEPTIDE1,8:R3-9:R3$$$V2.0)	2.23
N=C(N)NCCC[C@@H](NC(=O)[C@@H](CCCNC(=N)N)NC(=O)[C@@H]1CCCN1C(=O)c1ccccc1)C(=O)N[C@@H](CCC(N)=O)C(=O)N[C@H](C(=O)N[C@H]1CSSC[C@@H](C(N)=O)NC1=O)C1CCCCC1	-0.32
N=C(N)NCCC[C@@H](NC(=O)[C@@H](CCCNC(=N)N)NC(=O)[C@@H]1CCCN1C(=O)c1ccccc1)C(=O)N[C@@H](CC(N)=O)C(=O)N[C@@H](CC1CCCCC1)C(=O)N[C@H]1CSSC[C@@H](C(N)=O)NC1=O	-0.21

Look up log10 of Ki for the entries below, preserving their order.
1. N=C(N)NCCC[C@@H](NC(=O)Cc1cccc(Cl)c1)C(=O)N[C@H](CCCNC(=N)N)C(=O)N[C@@H](CCC(N)=O)C(=O)N[C@@H](CC1CCCCC1)C(=O)N[C@H]1CSSC[C@@H](C(N)=O)NC1=O
2. N=C(N)NCCC[C@@H](NC(=O)[C@@H]1CCC(=O)N1)C(=O)N[C@H](CCCNC(=N)N)C(=O)N[C@@H](CCC(N)=O)C(=O)N[C@@H](CC1CCCCC1)C(=O)N[C@H]1CSSC[C@@H](C(N)=O)NC1=O
3. CC[C@H](C)[C@H](NC(=O)[C@H](CCC(N)=O)NC(=O)[C@H](CCCNC(=N)N)NC(=O)[C@H](CCCNC(=N)N)NC(=O)[C@@H]1CSSC[C@H](NC(=O)[C@@H](N)CC(N)=O)C(=O)N1)C(=O)N[C@H]1CSSC[C@@H](C(N)=O)NC1=O (HELM PEPTIDE1{N.C.C.R.R.Q.I.C.C.[am]}$PEPTIDE1,PEPTIDE1,2:R3-3:R3|PEPTIDE1,PEPTIDE1,8:R3-9:R3$$$V2.0)
4. CC[C@H](C)[C@H](NC(=O)[C@H](CCC(N)=O)NC(=O)[C@H](CCCCN)NC(=O)[C@H](CCCNC(=N)N)NC(=O)[C@@H]1CSSC[C@H](NC(=O)[C@@H](N)CC(N)=O)C(=O)N1)C(=O)N[C@H]1CSSC[C@@H](C(N)=O)NC1=O (HELM PEPTIDE1{N.C.C.R.K.Q.I.C.C.[am]}$PEPTIDE1,PEPTIDE1,2:R3-3:R3|PEPTIDE1,PEPTIDE1,8:R3-9:R3$$$V2.0)
5. N=C(N)NCCC[C@@H](NC(=O)[C@@H](CCCNC(=N)N)NC(=O)[C@@H]1CCCN1C(=O)c1ccccc1)C(=O)N[C@@H](CCC(=O)O)C(=O)N[C@@H](CC1CCCCC1)C(=O)N[C@H]1CSSC[C@@H](C(N)=O)NC1=O

Solution:
1. 0.32
2. 0.59
3. 1.90
4. 2.32
5. 1.29

* * *

Please go through the items and note down their Ratio Ki.
species: Homo sapiens; assay: Selectivity ratio, ratio of Ki for human KOR to Ki for human MOR
Where a SMILES comes first, the peptide text is derived from it.

Compound	Ratio Ki
N=C(N)NCCC[C@@H](NC(=O)[C@@H](CCCNC(=N)N)NC(=O)[C@@H]1CCCN1C(=O)c1ccccc1)C(=O)N[C@@H](CCC(N)=O)C(=O)N[C@@H](CC1CCCCC1)C(=O)N[C@H]1CSSC[C@@H](C(N)=O)NC1=O	> 250000
CC[C@H](C)[C@H](NC(=O)[C@H](CCC(N)=O)NC(=O)[C@H](CCCNC(=N)N)NC(=O)[C@H](CCCNC(=N)N)NC(=O)[C@@H]1CSSC[C@H](NC(=O)[C@@H](N)CC(N)=O)C(=O)N1)C(=O)N[C@H]1CSSC[C@@H](C(N)=O)NC1=O (HELM PEPTIDE1{N.C.C.R.R.Q.I.C.C.[am]}$PEPTIDE1,PEPTIDE1,2:R3-3:R3|PEPTIDE1,PEPTIDE1,8:R3-9:R3$$$V2.0)	> 630

Look up Ratio Ki for the entries below, preserving their order.
1. N=C(N)NCCC[C@@H](NC(=O)[C@@H](CCCNC(=N)N)NC(=O)[C@@H]1CCCN1C(=O)c1ccccc1)C(=O)N[C@@H](CCC(N)=O)C(=O)N[C@H](C(=O)N[C@H]1CSSC[C@@H](C(N)=O)NC1=O)C1CCCCC1
2. CC1(C)SSC[C@@H](C(N)=O)NC(=O)[C@H]1NC(=O)[C@H](CC1CCCCC1)NC(=O)[C@H](CCC(N)=O)NC(=O)[C@@H](CCCNC(=N)N)NC(=O)[C@@H](CCCNC(=N)N)NC(=O)[C@@H]1CCC(=O)N1
3. CC[C@H](C)[C@H](NC(=O)[C@H](CCC(N)=O)NC(=O)[C@H](CCCNC(=N)N)NC(=O)[C@H](CCCNC(=N)N)NC(=O)[C@@H]1CSSC[C@H](NC(=O)[C@@H]2CCC(=O)N2)C(=O)N1)C(=O)N[C@H]1CSSC[C@@H](C(N)=O)NC1=O (HELM PEPTIDE1{[Glp].C.C.R.R.Q.I.C.C.[am]}$PEPTIDE1,PEPTIDE1,2:R3-3:R3|PEPTIDE1,PEPTIDE1,8:R3-9:R3$$$V2.0)
4. N=C(N)NCCC[C@@H](NC(=O)[C@@H]1CCC(=O)N1)C(=O)N[C@H](CCCNC(=N)N)C(=O)N[C@@H](CCC(N)=O)C(=O)N[C@@H](CC1CCCCC1)C(=O)N[C@H]1CSSC[C@@H](C(N)=O)NC1=O

Solution:
> 125000
> 39000
> 630
> 10000
